Hey, just so you know, these numbers are from the supplement of paper PMC8728848.

# target_or_test_system: Gal(b1-4)GlcNAc(b1-2)[Gal(b1-4)GlcNAc(b1-6)]Man(a1-6)[Gal(b1-4)GlcNAc(b1-2)Man(a1-3)]Man(b1-4)GlcNAc(b1-4)[Fuc(a1-6)]GlcNAc
# protocol_text: glycan array binding signal (z-score within array); higher = stronger binding
# particulars: glycan notation: IUPAC condensed, linker removed
The full list was thinned out, with the strongest signals kept by preference.
experimental_endpoint: glycan array binding signal (z-score)
Would you mind answering with just the numeric figure?

Prompt: Identify glycan array binding signal (z-score) associated with the binder Morniga (Morus nigra) (protein) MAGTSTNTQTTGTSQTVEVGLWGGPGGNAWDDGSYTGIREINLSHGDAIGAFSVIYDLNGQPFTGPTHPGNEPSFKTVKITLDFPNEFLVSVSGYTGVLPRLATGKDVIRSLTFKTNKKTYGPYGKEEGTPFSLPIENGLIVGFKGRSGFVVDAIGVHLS
Completion: 1.6
